molecular target: UniProt P31424; assay: Positive allosteric modulation of rat mGluR5 expressed in HEK293 cells
Below, each of the compounds is paired with its reported EC50 value.
The response must be a number in µM with no trailing unit.

# annotated cases, reported EC50 shown
1) CCSc1nnc2c(n1)O[C@@H](c1ccc(N(C)C)cc1)N(C(C)=O)c1ccccc1-2 :: 4.27
2) CCCSc1nnc2c(n1)O[C@H](c1ccccc1OC(C)=O)N(C(C)=O)c1ccccc1-2 :: 1.32
3) C=CCSc1nnc2c(n1)O[C@@H](c1ccccc1OCCC)N(C(C)=O)c1ccccc1-2 :: 1.32
4) C=CCSc1nnc2c(n1)O[C@@H](c1cccnc1)N(C(C)=O)c1ccccc1-2 :: 0.832

Consider now this further compound.
What does the data say about its EC50? Entry: CCCSc1nnc2c(n1)O[C@@H](c1ccccc1F)N(C(=O)CC)c1ccccc1-2 0.646

###

target: Metabotropic glutamate receptor 5 (Rattus norvegicus, UniProt P31424); test: Positive allosteric modulation of rat mGluR5 expressed in HEK293 cells
Sequence (P31424 whole entry): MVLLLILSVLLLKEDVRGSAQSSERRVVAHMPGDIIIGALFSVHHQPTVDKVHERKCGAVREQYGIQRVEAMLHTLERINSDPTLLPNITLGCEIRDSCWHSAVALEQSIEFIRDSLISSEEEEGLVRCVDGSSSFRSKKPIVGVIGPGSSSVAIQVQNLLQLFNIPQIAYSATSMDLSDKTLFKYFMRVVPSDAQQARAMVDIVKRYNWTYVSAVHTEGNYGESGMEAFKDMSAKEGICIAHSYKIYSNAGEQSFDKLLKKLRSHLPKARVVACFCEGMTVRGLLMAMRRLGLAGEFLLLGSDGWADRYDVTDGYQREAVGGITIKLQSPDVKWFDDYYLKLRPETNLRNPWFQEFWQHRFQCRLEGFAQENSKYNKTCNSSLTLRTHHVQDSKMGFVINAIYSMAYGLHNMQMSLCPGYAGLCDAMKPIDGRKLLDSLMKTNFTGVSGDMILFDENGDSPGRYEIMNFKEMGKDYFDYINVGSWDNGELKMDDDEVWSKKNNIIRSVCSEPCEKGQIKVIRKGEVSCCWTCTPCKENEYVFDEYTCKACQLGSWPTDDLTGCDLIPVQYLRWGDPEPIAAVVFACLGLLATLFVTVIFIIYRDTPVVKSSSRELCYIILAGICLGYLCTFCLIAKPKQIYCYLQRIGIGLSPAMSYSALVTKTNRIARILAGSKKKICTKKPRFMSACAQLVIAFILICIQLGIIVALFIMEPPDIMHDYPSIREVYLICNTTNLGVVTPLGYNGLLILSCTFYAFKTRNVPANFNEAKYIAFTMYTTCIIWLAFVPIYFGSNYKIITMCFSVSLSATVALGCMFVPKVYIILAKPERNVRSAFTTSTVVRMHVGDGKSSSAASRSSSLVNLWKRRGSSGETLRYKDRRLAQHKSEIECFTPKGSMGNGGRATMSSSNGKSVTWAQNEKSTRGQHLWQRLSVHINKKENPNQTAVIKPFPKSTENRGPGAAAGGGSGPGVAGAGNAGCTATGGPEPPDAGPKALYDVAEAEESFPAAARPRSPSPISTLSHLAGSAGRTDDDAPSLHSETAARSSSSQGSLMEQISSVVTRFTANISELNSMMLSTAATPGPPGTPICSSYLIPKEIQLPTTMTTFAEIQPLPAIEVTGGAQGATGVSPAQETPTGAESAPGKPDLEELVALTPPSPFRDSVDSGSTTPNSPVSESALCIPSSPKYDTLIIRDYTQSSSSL
READOUT_TYPE: pEC50
Just so you know, pEC50 here is -log10 of the concentration in molar units; reply with that number alone.

1) CCSc1nnc2c(n1)O[C@@H](c1cc(OC(C)=O)ccc1Cl)N(C(C)=O)c1ccccc1-2 :: 5.42

Find the recorded pEC50 belonging to CCSc1nnc2c(n1)O[C@@H](c1cc(Br)ccc1OC)N(C(=O)CC)c1ccccc1-2 and report it. 6.09

Return reported pEC50; argument: CCC(=O)N1c2ccccc2-c2nnc(SC)nc2O[C@H]1c1cc(Cl)ccc1OC 6.12

Any idea what its pEC50 is? The compound is C=CCSc1nnc2c(n1)O[C@@H](c1ccco1)N(C(C)=O)c1ccccc1-2 5.99

###

Overview of reported EC50 across a group of compounds:
target: Metabotropic glutamate receptor 5 (Rattus norvegicus, UniProt P31424); test: Positive allosteric modulation of rat mGluR5 expressed in HEK293 cells
Could you write the number and then its unit?

Record request: EC50 value, item CCSc1nnc2c(n1)O[C@@H](c1cc(Cl)ccc1OC(C)=O)N(C(C)=O)c1ccccc1-2 1580 nM

// query EC50 value for entry CCC(=O)N1c2ccccc2-c2nnc(SC)nc2O[C@H]1c1cc(Br)c(OC)c(OC)c1 1230 nM

Recorded EC50 for CCCOc1ccccc1[C@@H]1Oc2nc(SCC)nnc2-c2ccccc2N1C(C)=O , please? 1120 nM

Requested field: EC50. Item: CCC(=O)N1c2ccccc2-c2nnc(SC)nc2O[C@H]1c1ccc(Cl)cc1 871 nM

Entry CCCC(=O)N1c2ccccc2-c2nnc(SC)nc2O[C@H]1c1cccnc1 has what EC50? 3890 nM

Can you share its EC50? I mean this compound: CCC(=O)N1c2ccccc2-c2nnc(SC)nc2O[C@H]1c1ccccc1OC 562 nM

###

target: UniProt P31424; experiment: Positive allosteric modulation of rat mGluR5 expressed in HEK293 cells
READOUT_TYPE: log10(EC50) (log10 of the value in µM)
Reminder: these figures are log10 of reported EC50, in µM before transformation.

May I ask what log10(EC50) has been recorded for CCC(=O)N1c2ccccc2-c2nnc(SC)nc2O[C@H]1c1ccc(Br)s1 ? 0.05

###

target: Metabotropic glutamate receptor 5 (Rattus norvegicus, UniProt P31424); assay: Positive allosteric modulation of rat mGluR5 expressed in HEK293 cells
pEC50: −log10 of the molar value.
// label = label 1 if pEC50 is not less than 6, otherwise label 0

1) C=CCSc1nnc2c(n1)O[C@@H](c1ccc(C)s1)N(C(C)=O)c1ccccc1-2 :: label 1
2) CCCC(=O)N1c2ccccc2-c2nnc(SC)nc2O[C@H]1c1ccc(C)o1 :: label 0

Does CCC(=O)N1c2ccccc2-c2nnc(SC)nc2O[C@H]1c1ccc(C)s1 have a reported pEC50 of at least 6? label 0

Identify whether the reported pEC50 of the following compound is 6 or greater: C=CCSc1nnc2c(n1)O[C@@H](c1sccc1C)N(C(C)=O)c1ccccc1-2 label 1
